The values you see were collected from patent US20210069342A1.

target_or_system: T1, recombinant human ROR1-His (Sino Biological, 13968-H08H) (human, UniProt Q01973 30-406)
T1 construct: extracellular domain; Bought protein; also called ROR1-HIS protein; not shown: His tag
T1 sequence (Q01973 30-406): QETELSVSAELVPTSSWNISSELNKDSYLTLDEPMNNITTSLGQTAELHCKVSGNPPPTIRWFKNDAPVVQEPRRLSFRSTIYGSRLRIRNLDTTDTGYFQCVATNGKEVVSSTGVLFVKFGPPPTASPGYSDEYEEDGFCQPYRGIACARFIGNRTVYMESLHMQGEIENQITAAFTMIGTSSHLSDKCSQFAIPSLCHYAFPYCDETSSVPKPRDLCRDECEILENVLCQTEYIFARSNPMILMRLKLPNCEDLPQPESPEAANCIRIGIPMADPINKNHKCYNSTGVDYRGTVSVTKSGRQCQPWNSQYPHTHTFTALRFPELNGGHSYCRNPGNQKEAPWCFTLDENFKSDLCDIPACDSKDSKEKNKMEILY
measurement_notes: ELISA, wells coated with human ROR1 protein (sheet: 'human ROR1'; text: ROR1-Fc or ROR1-His), IgG titrated, OD(450nm-650nm); x axis 'conc(nM)' numbered -5 to 2 (log10)
metric_name: EC50 (read off the curve)

1. anti-ROR1 IgG antibody BA6 M1 (antibody, V domains shown, Full IgG form (human IgG1 constant region, lambda light chain), expressed in CHO-S cells) VH: EVQLLESGGGLVQPGGSLRLSCAASGFTFSNYDMSWVRQAPGKGLEWVSAIYHSGSSKYYADSVKGRFTISRDNSKNTLYLQMNSLRAEDTAVYYCARGGNAAWDTGFDYWGQGTLVTVSS VL: QSVLTQPPSASGTPGQRVTISCSGSSSNIGSNDVSWYQQLPGTAPKLLIYYDNNRPSGVPDRFSGSKSGTSASLAISGLRSEDEADYYCGAWDDSLSGYVFGGGTKLTVLG = ~0.06 nM
2. anti-ROR1 IgG antibody A2F2 M1 (antibody, V domains shown, Full IgG form (human IgG1 constant region, lambda light chain), expressed in CHO-S cells) VH: EVQLLESGGGLVQPGGSLRLSCAASGFTFSDYYMSWVRQAPGKGLEWVSSISPDASNTYYADSVKGRFTISRDNSKNTLYLQMNSLRAEDTAVYYCAKNLRAFDYWGQGTLVTVSS VL: QSVLTQPPPASGTPGQRVTISCSGSSSNIGSNTVYWYQQLPGTAPKLLIYANSQRPSGVPDRFSGSKSGTSASLAISGLRSEDEADYYCGSWDYSLSGYVFGGGTKLTVLG = ~0.04 nM
3. anti-ROR1 IgG antibody A2F2 (antibody, V domains shown, Full IgG form (human IgG1 constant region, lambda light chain), expressed in CHO-S cells) VH: EVQLLESGGGLVQPGGSLRLSCAASGFTFSDYYMSWVRQAPGKGLEWVSSISPDGSNTYYADSVKGRFTISRDNSKNTLYLQMNSLRAEDTAVYYCAKNLRAFDYWGQGTLVTVSS VL: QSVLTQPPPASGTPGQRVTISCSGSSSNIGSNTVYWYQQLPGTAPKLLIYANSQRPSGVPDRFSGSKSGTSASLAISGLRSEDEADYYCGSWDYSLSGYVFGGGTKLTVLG = ~0.04 nM

Please look up its EC50 (read off the curve): anti-ROR1 IgG antibody BA6 (antibody, V domains shown, Full IgG form (human IgG1 constant region, lambda light chain), expressed in CHO-S cells) VH: EVQLLESGGGLVQPGGSLRLSCAASGFTFSNYDMSWVRQAPGKGLEWVSAIYHSGSSKYYADSVKGRFTISRDNSKNTLYLQMNSLRAEDTAVYYCARGGNGAWDTGFDYWGQGTLVTVSS VL: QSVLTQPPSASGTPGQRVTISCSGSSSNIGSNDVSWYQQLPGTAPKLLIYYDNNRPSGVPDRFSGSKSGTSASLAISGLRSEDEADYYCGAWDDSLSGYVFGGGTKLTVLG
~0.05 nM
